Biological target: recombinant human GST-SYK (Homo sapiens)
Construct: purchased Carna Biosciences 08-176
Test: Homogeneous Time-Resolved Fluorescence (HTRF) assay for the recombinant human Syk enzyme
Assay type: biochemical
Settings: 5 pM GST-SYK, 25 μM ATP, 10-dose titration, read-out: rhSYK Activity
measured parameter: IC50

compound	assayed target	test value
Cc1cc(C)nc(Nc2cc(N[C@@H]3COC[C@H]3N)ncc2C(N)=O)c1 (relative stereo) [Example 2.4]	recombinant human GST-SYK (Homo sapiens)	1000 to 10000 nM
Cc1cccc(Nc2cc(N[C@@H]3CCCC[C@H]3N)ncc2C(N)=O)n1 (relative stereo) [Example 2.8]	recombinant human GST-SYK (Homo sapiens)	100 to 1000 nM
Cc1cc(C)nc(Nc2cc(NC(C)CN)ncc2C(N)=O)c1 (racemic) [Example 2.10]	recombinant human GST-SYK (Homo sapiens)	1000 to 10000 nM
Cc1nc(Nc2cc(NC[C@H](C)N)ncc2C(N)=O)ccc1-c1cnn(C)c1 [Example 1.9]	recombinant human GST-SYK (Homo sapiens)	< 10 nM
NC(=O)c1cnc(N[C@@H]2CCCC[C@@H]2N)cc1Nc1cccc(C(F)(F)F)n1 [Example 1.1]	recombinant human GST-SYK (Homo sapiens)	< 10 nM
Cc1cc(C)nc(Nc2cc(NCC3(N)CCOC3)ncc2C(N)=O)c1 (racemic) [Example 2.6]	recombinant human GST-SYK (Homo sapiens)	1000 to 10000 nM
NC(=O)c1cnc(N[C@@H]2CCCC[C@@H]2N)cc1Nc1ccc2ccccc2n1 [Example 1.6]	recombinant human GST-SYK (Homo sapiens)	< 10 nM
Cc1nc(Nc2cc(NCCN)ncc2C(N)=O)ccc1Br [Example 2.13]	recombinant human GST-SYK (Homo sapiens)	10 to 100 nM

Prompt line: Report measured IC50; entry is Cc1cc(C)nc(Nc2cc(NCC(N)C(F)(F)F)ncc2C(N)=O)c1 (racemic) [Example 2.3]
Response line: 1000 to 10000 nM

Prompt line: Name the recorded IC50 of the compound listed here: CCC(C)(N)CNc1cc(Nc2cccc(C)n2)c(C(N)=O)cn1 (racemic) [Example 2.9]
Response line: 100 to 1000 nM

Prompt line: Consider the compound Cc1cccc(Nc2cc(NCCN)ncc2C(N)=O)n1 [Example 1.3] and give its recorded IC50.
Response line: 100 to 1000 nM

Prompt line: Give the measured IC50 for Cc1cc(C)nc(Nc2cc(NCCN)ncc2C(N)=O)c1 [Example 2.2]
Response line: 10 to 100 nM

Prompt line: State its IC50: Cc1cc(C)nc(Nc2cc(N[C@H]3[C@@H](N)CCCC3(F)F)ncc2C(N)=O)c1 [Example 3.3]
Response line: 10 to 100 nM

Prompt line: Specify reported IC50 for the compound shown: COC[C@H](N)CNc1cc(Nc2cccc(C)n2)c(C(N)=O)cn1 [Example 2.7]
Response line: 100 to 1000 nM

Every entry's value here was drawn from patent US8987456B2.
